Kindly supply the reported time of maximal reversal of mechano-allodynia values for the records listed here.
- Tested on: CCI of the sciatic nerve (mechano-allodynia)
- assay-procedure: CCI model of neuropathic pain, mechano-allodynia (von Frey PWT)
- Type: in vivo, mice
- experimental-setup: after single administration on D7
Give bare numbers, in h.

Here's what some known entries look like.
# molecule, assay-system, result-value
rows = [
    ("CN(C)CCC=C1c2ccccc2CCc2ccccc21", "CCI of the sciatic nerve (mechano-allodynia)", 1),
    ("NCC1(CC(=O)O)CCCCC1 [gabapentin, 2-[1-(aminomethyl)cyclohexyl]acetic acid]", "CCI of the sciatic nerve (mechano-allodynia)", 1),
]

Now for another entry.
stdin: Return reported time of maximal reversal of mechano-allodynia; argument: `CN1CC[C@]23c4c5ccc(O)c4O[C@H]2[C@@H](O)C=C[C@H]3[C@H]1C5`
stdout: 0.5
